Biological target: T1, monovalent hVISTA-ECD (human VISTA extracellular domain with His tail) (human, UniProt Q9H7M9 33-193)
T1 construct: analyte flowed over captured antibody; also called huVISTA-His
T1 sequence (Q9H7M9 other isoform, or with tags, fused parts or gaps limits assumed): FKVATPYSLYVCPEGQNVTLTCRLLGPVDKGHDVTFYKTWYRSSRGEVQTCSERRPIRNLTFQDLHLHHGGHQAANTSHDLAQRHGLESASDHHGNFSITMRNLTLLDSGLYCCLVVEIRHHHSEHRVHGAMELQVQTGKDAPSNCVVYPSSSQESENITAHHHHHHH
Assay: SPR, pH 7.4
Endpoint name: koff (s⁻¹)
Number only, in s⁻¹; omit the unit.

Binder | Reported value
P1-063153 (41F11_HC_mutant: D31E/Y50W/S55E/Y100E) (antibody, V domains shown, Kabat positions; also called P1-063153-5) VH: QVQLVESGGGLVKPGGSLRLSCAASGFTFSEYYMSWIRQAPGKGLEWVSWISNSGEPIYYADSVKGRFTISRDNAKNSLYLQMNSLRAEDTAVYYCARDLPGWEFDLWGRGTLVTVSS VL: EIVLTQSPATLSLSPGERATLSCRASQSVSSYLAWYQQKPGQAPRLLIYDASNRATGIPARFSASGSGTDFTLTISSLEPEDFAVYYCQQRNNWPRTFGQGTKVEIK | 0.00012
P1-064392 (41F11_HC_Mutant: D31E/Y50W/S55E/Y100E 41F11_LC_Mutant: V29D/A64G/Q89E/R91T) (antibody, V domains shown, Kabat positions; also called P1-064392-1) VH: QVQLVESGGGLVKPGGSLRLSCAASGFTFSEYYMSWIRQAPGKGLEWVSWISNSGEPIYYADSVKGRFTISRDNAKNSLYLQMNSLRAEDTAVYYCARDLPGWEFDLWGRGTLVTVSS VL: EIVLTQSPATLSLSPGERATLSCRASQSDSSYLAWYQQKPGQAPRLLIYDASNRATGIPARFSGSGSGTDFTLTISSLEPEDFAVYYCEQTNNWPRTFGQGTKVEIK | 0.007
P1-064391 (41F11_HC_Mutant: D31E/Y50W/S55E/Y100E 41F11_LC_Mutant: V29D/A64G/R91T) (antibody, V domains shown, Kabat positions; also called P1-064391-1) VH: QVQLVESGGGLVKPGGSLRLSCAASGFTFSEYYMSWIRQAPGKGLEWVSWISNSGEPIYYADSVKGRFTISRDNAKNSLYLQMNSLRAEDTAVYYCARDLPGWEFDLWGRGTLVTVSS VL: EIVLTQSPATLSLSPGERATLSCRASQSDSSYLAWYQQKPGQAPRLLIYDASNRATGIPARFSGSGSGTDFTLTISSLEPEDFAVYYCQQTNNWPRTFGQGTKVEIK | 0.016

Enquiry: Sample P1-064510 (41F11_Vk_A25E/V29D/A64G/R91T) (antibody, V domains shown, also called P1-064510-1) VH: QVQLVESGGGLVKPGGSLRLSCAASGFTFSDYYMSWIRQAPGKGLEWVSYISNSGSPIYYADSVKGRFTISRDNAKNSLYLQMNSLRAEDTAVYYCARDLPGWYFDLWGRGTLVTVSS VL: EIVLTQSPATLSLSPGERATLSCRESQSDSSYLAWYQQKPGQAPRLLIYDASNRATGIPARFSGSGSGTDFTLTISSLEPEDFAVYYCQQTNNWPRTFGQGTKVEIK — what was its koff?
Return: 0.00064

Enquiry: Sample P1-063125 (41F11_HC_Mutant: T28P/Y50W/S55E/Y100E) (antibody, V domains shown, Kabat positions; also called P1-063125-5) VH: QVQLVESGGGLVKPGGSLRLSCAASGFPFSDYYMSWIRQAPGKGLEWVSWISNSGEPIYYADSVKGRFTISRDNAKNSLYLQMNSLRAEDTAVYYCARDLPGWEFDLWGRGTLVTVSS VL: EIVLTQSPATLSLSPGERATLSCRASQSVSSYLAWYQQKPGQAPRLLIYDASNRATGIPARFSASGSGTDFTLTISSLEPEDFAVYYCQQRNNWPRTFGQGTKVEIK — what was its koff?
Return: 0.0002
